experiment: Metabolic stability in human liver microsomes assessed as intrinsic clearance preincubated for 10 mins followed by NADPH addition and measured upto 60 mins by LC-MS/MS analysis; format: ADME, Microsome; details: time < 70 min, read-out: CLH
This listing pairs molecules with measured CLint scaled.

{"MOLECULE": "CN1CCC(N(C)c2ccc(Nc3ncc(Cl)c(Nc4ccccc4-c4ncn(C)n4)n3)cc2)CC1", "CLint scaled / mL/min/kg": 23.4}
{"MOLECULE": "CN1CCC(Oc2ccc(Nc3ncc(Cl)c(Nc4ccccc4-c4nnn(C)n4)n3)cc2)CC1", "CLint scaled / mL/min/kg": 48}
{"MOLECULE": "CC(=O)N1CCc2ccc(Nc3ncc(Cl)c(Nc4ccccc4S(=O)(=O)N(C)C)n3)cc2C1", "CLint scaled / mL/min/kg": 953}
{"MOLECULE": "CN1CC2CN(C(=O)c3ccc(Nc4ncc(Cl)c(Nc5ccccc5S(=O)(=O)N(C)C)n4)cc3)CC2C1 (stereo not drawn)", "CLint scaled / mL/min/kg": 393}
{"MOLECULE": "CC(=O)N1CCN(c2ccc(Nc3ncc(Cl)c(Nc4ccccc4-c4ncn(C(C)C)n4)n3)cc2)CC1", "CLint scaled / mL/min/kg": 11.2}
{"MOLECULE": "CN1CCc2ccc(Nc3ncc(Cl)c(Nc4ccccc4S(=O)(=O)N(C)C)n3)cc2C1", "CLint scaled / mL/min/kg": 720}
{"MOLECULE": "CC(C)n1cnc(-c2ccccc2Nc2nc(Nc3ccc(N(C)C4CCN(C)CC4)cc3)ncc2Cl)n1", "CLint scaled / mL/min/kg": 28.7}
{"MOLECULE": "CN1CCN(Cc2ccc(Nc3ncc(Cl)c(Nc4ccccc4S(=O)(=O)N(C)C)n3)cc2)CC1 [DUBERMATINIB]", "CLint scaled / mL/min/kg": 646}

----------
This listing pairs molecules with measured CLint scaled.
assay: Metabolic stability in rat liver microsomes assessed as intrinsic clearance preincubated for 10 mins followed by NADPH addition and measured upto 60 mins by LC-MS/MS analysis; type: ADME, Microsome; conditions: time < 70 min, read-out: CLH

{"MOLECULE": "CN1CCC(N(C)c2ccc(Nc3ncc(Cl)c(Nc4ccccc4-c4ncn(C)n4)n3)cc2)CC1", "CLint scaled / mL/min/kg": 162}
{"MOLECULE": "CC(C)n1cnc(-c2ccccc2Nc2nc(Nc3ccc(N(C)C4CCN(C)CC4)cc3)ncc2Cl)n1", "CLint scaled / mL/min/kg": 87.7}
{"MOLECULE": "CN1CCN(Cc2ccc(Nc3ncc(Cl)c(Nc4ccccc4S(=O)(=O)N(C)C)n3)cc2)CC1 [DUBERMATINIB]", "CLint scaled / mL/min/kg": 582}
{"MOLECULE": "CC(=O)N1CCN(c2ccc(Nc3ncc(Cl)c(Nc4ccccc4-c4ncn(C(C)C)n4)n3)cc2)CC1", "CLint scaled / mL/min/kg": 16.2}
{"MOLECULE": "CN1CCC(Oc2ccc(Nc3ncc(Cl)c(Nc4ccccc4-c4nnn(C)n4)n3)cc2)CC1", "CLint scaled / mL/min/kg": 389}
{"MOLECULE": "CN1CC2CN(C(=O)c3ccc(Nc4ncc(Cl)c(Nc5ccccc5S(=O)(=O)N(C)C)n4)cc3)CC2C1 (stereo not drawn)", "CLint scaled / mL/min/kg": 339}
{"MOLECULE": "CC(=O)N1CCc2ccc(Nc3ncc(Cl)c(Nc4ccccc4S(=O)(=O)N(C)C)n3)cc2C1", "CLint scaled / mL/min/kg": 1090}
{"MOLECULE": "CN1CCc2ccc(Nc3ncc(Cl)c(Nc4ccccc4S(=O)(=O)N(C)C)n3)cc2C1", "CLint scaled / mL/min/kg": 1040}
